molecular target: USP7 (Homo sapiens (Human), UniProt Q93009); experiment: USP7 fluorescence polarisation (FP) assay with ubiquitin-Lys-TAMRA substrate; type: biochemical; conditions: biochemical inhibition; read-out: USP7 IC50 activity (Table 3a, classes)
Sequence (Q93009 whole entry): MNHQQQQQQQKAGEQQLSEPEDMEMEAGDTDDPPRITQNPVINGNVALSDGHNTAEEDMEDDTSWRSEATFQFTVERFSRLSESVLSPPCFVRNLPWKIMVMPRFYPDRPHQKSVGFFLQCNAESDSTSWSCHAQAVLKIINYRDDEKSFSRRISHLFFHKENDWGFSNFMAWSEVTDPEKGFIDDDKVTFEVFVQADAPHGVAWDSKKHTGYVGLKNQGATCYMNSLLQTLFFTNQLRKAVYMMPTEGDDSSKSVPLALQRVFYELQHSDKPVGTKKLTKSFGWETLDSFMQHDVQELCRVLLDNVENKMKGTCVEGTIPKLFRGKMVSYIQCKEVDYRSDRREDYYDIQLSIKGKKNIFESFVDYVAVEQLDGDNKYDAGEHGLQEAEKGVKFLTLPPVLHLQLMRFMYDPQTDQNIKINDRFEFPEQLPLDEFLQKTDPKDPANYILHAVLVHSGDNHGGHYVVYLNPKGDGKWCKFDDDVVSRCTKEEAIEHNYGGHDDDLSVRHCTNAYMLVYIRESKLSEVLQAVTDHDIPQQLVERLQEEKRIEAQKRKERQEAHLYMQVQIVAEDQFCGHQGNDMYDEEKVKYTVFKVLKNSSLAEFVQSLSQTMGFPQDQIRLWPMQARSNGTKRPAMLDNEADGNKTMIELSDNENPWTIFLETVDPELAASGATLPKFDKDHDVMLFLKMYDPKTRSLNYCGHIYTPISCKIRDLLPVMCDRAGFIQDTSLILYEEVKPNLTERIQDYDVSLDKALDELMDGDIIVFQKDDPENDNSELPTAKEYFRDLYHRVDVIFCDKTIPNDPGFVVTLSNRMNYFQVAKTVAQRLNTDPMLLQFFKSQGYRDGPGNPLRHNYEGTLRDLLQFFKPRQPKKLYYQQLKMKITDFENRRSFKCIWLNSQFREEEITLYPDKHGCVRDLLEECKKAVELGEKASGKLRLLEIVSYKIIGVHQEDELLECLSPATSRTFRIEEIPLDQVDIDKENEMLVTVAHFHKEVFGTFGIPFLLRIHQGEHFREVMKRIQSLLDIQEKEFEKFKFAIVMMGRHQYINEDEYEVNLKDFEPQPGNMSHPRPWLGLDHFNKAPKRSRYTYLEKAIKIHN
pIC50: −log10 of the molar value.
measured quantity: pIC50

Take a look at these entries with their results.
CC1(C(=O)N2CCC(O)(Cn3cnc4c(cc(Cl)n4-c4ccc([C@@H]5COCCN5)cc4)c3=O)CC2)CC1 (single isomer, unassigned) [Example 71] :: > 7.00
Cc1cc(-n2c(Cl)cc3c(=O)n(CC4(O)CCN(C(=O)c5ccc(Cl)cc5F)CC4)cnc32)ccc1[C@H]1CO[C@H](C)CN1 [Example 50] :: 6.60 to 7.00
C[C@H]1CN[C@H](c2ccc(-n3c(Cl)cc4c(=O)n(CC5(O)CCN(C(=O)C(C6CC6)C6CC6)CC5)cnc43)cc2)CO1 [Example 99] :: 5.70 to 6.60
Cc1cc(Cl)ccc1C(=O)N1CCC(O)(Cn2cnc3c(cc(Cl)n3-c3ccc([C@@H]4CO[C@@H](C)CN4)cc3)c2=O)CC1 [Example 90] :: 5.70 to 6.60
O=C(N1CCC(O)(Cn2cnc3c(cc(Cl)n3-c3ccc([C@H]4COCCN4)cc3)c2=O)CC1)C1(C2CC2)CC1 (single isomer, unassigned) [Example 79] :: > 7.00

Record pIC50 per entry; entries follow.
1. CC[C@H]1CN[C@H](c2ccc(-n3c(Cl)cc4c(=O)n(CC5(O)CCN(C(=O)c6ccc(F)cc6)CC5)cnc43)cc2)CO1 [Example 45]
2. Cc1cc(-n2c(Cl)cc3c(=O)n(CC4(O)CCN(C(=O)c5ccccc5Cl)CC4)cnc32)ccc1[C@H]1CO[C@H](C)CN1 [Example 52]
3. CC[C@H]1CN[C@H](c2ccc(-n3c(Cl)cc4c(=O)n(CC5(O)CCN(C(=O)[C@]6(C)C[C@H]6C)CC5)cnc43)cc2)CO1 [Example 96]
4. Cc1cc(-n2c(Cl)cc3c(=O)n(CC4(O)CCN(C(=O)c5ccc(C6(C)CC6)cc5)CC4)cnc32)ccc1[C@H]1CO[C@H](C)CN1 [Example 94]
5. O=C(N1CCC(O)(Cn2cnc3c(cc(Cl)n3-c3ccc([C@@H]4NC[C@@H]5CC[C@H]4O5)cc3)c2=O)CC1)C1(C2CC2)CC1 [Example 49]

["6.60 to 7.00", "6.60 to 7.00", "> 7.00", "6.60 to 7.00", "6.60 to 7.00"]

Please report pIC50 for every entry that follows.
1. O=C(c1ccc(Cl)cc1)N1CCC(O)(Cn2cnc3c(cc(Cl)n3-c3ccc(C4COC5CCCC5N4)cc3)c2=O)CC1 (stereo not drawn) [Example 54]
2. Cc1cc(-n2c(Cl)cc3c(=O)n(CC4(O)CCN(C(=O)[C@]5(C)C[C@H]5C(F)(F)F)CC4)cnc32)ccc1[C@H]1CO[C@H](C)CN1 (single isomer, unassigned) [Example 62]

["6.60 to 7.00", "> 7.00"]

====

molecular target: USP7 (Homo sapiens (Human)); assay: USP7 fluorescence polarisation (FP) assay with ubiquitin-Lys-TAMRA substrate; format: biochemical; details: biochemical inhibition; unit not given in Table 3b (Table 1 and key of Table 3a use μM); read-out: USP7 IC50 activity (Table 3b)
Kindly apply the following: MET if IC50 is less than 0.1 µM, NOT MET in every other case.

Given the entry O=C(c1ccc(Cl)cc1)N1CCC(O)(Cn2cnc3c(cc(Cl)n3-c3ccc(C4COCC5(CC5)N4)cc3)c2=O)CC1 (stereo not shown) [Example 18] , would its reported IC50 be below 0.1 µM?
NOT MET

====

Please respond with reported AUC(0-inf) for every item in the list.
test: Pharmacokinetic (PK) parameters in mouse; assay type: in vivo, BALB/c mouse; details: blood; BALB/c mouse IV 1 mg/kg
Numbers only, in ng·h/mL.

C[C@H]1CN[C@H](c2ccc(-n3c(Cl)cc4c(=O)n(CC5(O)CCN(C(=O)[C@]6(C)C[C@H]6C(F)(F)F)CC5)cnc43)cc2)CO1 (single isomer, unassigned) :: 591

Query compound follows.
For reference, reported AUC(0-inf) for C[C@H]1CN[C@H](c2ccc(-n3c(Cl)cc4c(=O)n(CC5(O)CCN(C(=O)c6ccc(F)cc6)CC5)cnc43)cc2)CO1 stands at 479

====

biological target: USP7 (Homo sapiens (Human), UniProt Q93009); assay: USP7 fluorescence polarisation (FP) assay with ubiquitin-Lys-TAMRA substrate; type: biochemical; details: biochemical inhibition; read-out: USP7 IC50 activity (Table 3a, classes)
measured quantity: IC50

Take a look at these entries with their results.
O=C(c1ccc(Cl)cc1)N1CCC(O)(Cn2cnc3c(cc(Cl)n3-c3ccc([C@H]4COCCN4)cc3)c2=O)CC1 (single isomer, unassigned) :: < 100 nM
CC1(C(=O)N2CCC(O)(Cn3cnc4c(cc(Cl)n4-c4ccc(C5(C)COCCN5)cc4)c3=O)CC2)CC1 (stereo not drawn) :: 100 to 250 nM

Batch request: IC50 per item, same order as input.
1. C[C@H]1CN[C@H](c2ccc(-n3c(Cl)cc4c(=O)n(CC5(O)CCN(C(=O)CCC6CC6)CC5)cnc43)cc2)CO1
2. CC1(C(=O)N2CCC(O)(Cn3cnc4c(cc(Cl)n4-c4ccc([C@H]5CO[C@H](C6CC6)CN5)cc4)c3=O)CC2)CC1
3. C[C@@H]1COC[C@H](c2ccc(-n3c(Cl)cc4c(=O)n(CC5(O)CCN(C(=O)c6ccc(Cl)cc6)CC5)cnc43)cc2)N1 (single isomer, unassigned)
4. CC[C@H]1CN[C@H](c2ccc(-n3c(Cl)cc4c(=O)n(CC5(O)CCN(C(=O)[C@]6(C)C[C@H]6C(F)(F)F)CC5)cnc43)cc2)CO1 (single isomer, unassigned)

1: 100 to 250 nM; 2: < 100 nM; 3: 100 to 250 nM; 4: < 100 nM

====

target: USP7 (Homo sapiens (Human)); experiment: USP7 fluorescence polarisation (FP) assay with ubiquitin-Lys-TAMRA substrate; type: biochemical; conditions: biochemical inhibition; read-out: USP7 IC50 activity (Table 3a, classes)
Provide the recorded IC50 for the entries that follow.

Sample answers from the record:
C[C@@H]1CN[C@@H](c2ccc(-n3c(Cl)cc4c(=O)n(CC5(O)CCN(C(=O)c6ccccc6)CC5)cnc43)cc2)CO1 :: 0.1 to 0.25 µM
Cc1cc(-n2c(Cl)cc3c(=O)n(CC4(O)CCN(C(=O)C5(C)CC5)CC4)cnc32)ccc1[C@H]1COCCN1 (single isomer, unassigned) :: < 0.1 µM
C[C@H]1CN[C@H](c2ccc(-n3c(Cl)cc4c(=O)n(CC5(O)CCN(C(=O)C6(C7CC7)CC6)CC5)cnc43)cc2)CO1 :: < 0.1 µM
CC1(C(=O)N2CCC(O)(Cn3cnc4c(cc(Cl)n4-c4ccc(C5COCCN5)c(F)c4)c3=O)CC2)CC1 (stereo not drawn) :: 0.1 to 0.25 µM

# batch size: 5; output IC50 per entry
1. Cc1cc(-n2c(Cl)cc3c(=O)n(CC4(O)CCN(C(=O)C[C@H](c5ccccc5)C(F)(F)F)CC4)cnc32)ccc1[C@H]1CO[C@H](C)CN1
2. C[C@@H]1CN[C@H](c2ccc(-n3c(Cl)cc4c(=O)n(CC5(O)CCN(C(=O)c6ccc(Cl)cc6)CC5)cnc43)cc2)CO1 (single isomer, unassigned)
3. O=C(c1ccc(Cl)cc1)N1CCC(O)(Cn2cnc3c(cc(Cl)n3-c3ccc(C4COC5CCCCC5N4)cc3)c2=O)CC1 (stereo not drawn)
4. O=C(C[C@H](c1ccccc1)C(F)F)N1CCC(O)(Cn2cnc3c(cc(Cl)n3-c3ccc([C@H]4COCCN4)cc3)c2=O)CC1 (single isomer, unassigned)
5. CC1(C(=O)N2CCC(O)(Cn3cnc4c(cc(Cl)n4-c4ccc(C5COCC6(CC6)N5)cc4)c3=O)CC2)CC1 (stereo not drawn)

< 0.1 µM
0.25 to 2 µM
0.25 to 2 µM
< 0.1 µM
0.25 to 2 µM

For every item below, please supply its IC50.
1. C[C@@H]1CN[C@@H](c2ccc(-n3c(Cl)cc4c(=O)n(CC5(O)CCN(C(=O)C6(C)CC6)CC5)cnc43)cc2)CO1
2. C[C@H]1CN[C@H](c2ccc(-n3ccc4c(=O)n(CC5(O)CCN(C(=O)c6ccc(Cl)cc6)CC5)cnc43)cc2)CO1 (racemic)

1: < 0.1 µM; 2: 0.1 to 0.25 µM

The reported value for C[C@@H]1CN[C@@H](c2ccc(-n3c(Cl)cc4c(=O)n(CC5(O)CCN(C(=O)c6ccc(F)cc6)CC5)cnc43)cc2)CO1 in terms of IC50 is 0.1 to 0.25 µM

====

Would you mind telling me the reported IC50 of each entry?
molecular target: USP7 (Homo sapiens (Human), UniProt Q93009); experiment: USP7 fluorescence polarisation (FP) assay with ubiquitin-Lys-TAMRA substrate; type: biochemical; settings: biochemical inhibition; unit not given in Table 3b (Table 1 and key of Table 3a use μM); read-out: USP7 IC50 activity (Table 3b)
One number for each entry, in µM.

C[C@@H]1OCCN[C@H]1c1ccc(-n2c(Cl)cc3c(=O)n(CC4(O)CCN(C(=O)c5ccc(Cl)cc5)CC4)cnc32)cc1 [Example 6] :: 0.05
C[C@H]1CN[C@H](c2ccc(-n3c(Cl)cc4c(=O)n(CC5(O)CCN(C(=O)C6(C7CC7)CC6)CC5)cnc43)cc2)CO1 [Example 42] :: 0.091
CC1(C(=O)N2CCC(O)(Cn3cnc4c(cc(Cl)n4-c4ccc([C@@H]5COCCN5)cc4)c3=O)CC2)CC1C(F)(F)F (stereo partly drawn) [Example 84] :: 0.045
C[C@H]1CN[C@H](c2ccc(-n3c(Cl)cc4c(=O)n(CC5(O)CCN(C(=O)C6(C)CC6)CC5)cnc43)cc2)CO1 [Example 101] :: 0.057
C[C@H]1CN[C@H](c2ccc(-n3c(Cl)cc4c(=O)n(CC5(O)CCN(C(=O)c6ccc(F)cc6F)CC5)cnc43)cc2)CO1 [Example 22] :: 0.222

// switching to the query molecule
The molecule identified as C[C@H]1CN[C@H](c2ccc(-n3c(Cl)cc4c(=O)n(CC5(O)CCN(C(=O)c6ccc(C(F)F)cc6)CC5)cnc43)cc2)CO1 [Example 91] registered its IC50 at 0.167
